conditions: in n-propanol, 318.22 K
observation.type: solubility (mole fraction)
Give your answer as a number; write no unit.

Requested read-out: solubility (mole fraction). Entry: `O=C(O)Cn1cnnn1`
0.106

====

settings: in isopropanol, 323.27 K
observation.type: solubility (mole fraction)
Give your answer as a number; write no unit.

Requested read-out: solubility (mole fraction). Entry: `O=C(O)Cn1cnnn1`
0.143

====

settings: in water, 293.28 K
observation.type: solubility (mole fraction)
Give your answer as a number; write no unit.

Requested read-out: solubility (mole fraction). Entry: `O=C(O)Cn1cnnn1`
0.016

====

conditions: in n-butyl acetate, 313.3 K
observation.type: solubility (mole fraction)
Give your answer as a number; write no unit.

Requested read-out: solubility (mole fraction). Entry: `O=C(O)Cn1cnnn1`
0.00931

Values were extracted from BigSolDB 2.1.
